// data source = patent US20240182593A1

- tested-target: T1, human OX40 protein (Sino Biological, Cat. 10481-H08H) (human, UniProt P43489 29-216)
- T1 construct: Bought recombinant protein; also called CD134; TNFRSF4
- T1 sequence (looked up): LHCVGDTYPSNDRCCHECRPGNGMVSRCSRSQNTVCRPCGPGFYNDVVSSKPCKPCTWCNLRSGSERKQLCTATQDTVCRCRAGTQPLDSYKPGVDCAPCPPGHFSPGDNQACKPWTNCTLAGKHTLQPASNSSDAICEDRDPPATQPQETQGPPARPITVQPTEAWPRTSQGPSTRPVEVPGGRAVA
- method-notes: ELISA, human OX40 protein coated at 0.1 ug/ml, antibody diluted 4-fold from 100 nM, HRP secondary antibody, O.D. 450 nm
Listing: EC50 (read off the curve) of selected binders
attribute-measured: EC50 (read off the curve)

{"binder": "O410 (antibody, human IgG1, lambda, V domains shown) VH: EVQLLESGGGLVQPGGSLRLSCAASGFTFSDYYMSWVRQAPGKGLEWVSGIYSDGSRKYYADSVKGRFTISRDNSKNTLYLQMNSLRAEDTAVYYCARHWSRFDYWGQGTLVTVSS VL: QSVLTQPPSASGTPGQRVTISCSGSSSNIGSNYVTWYQQLPRTAPKLLIYYDSNRPSGVPDRFSGSKSGTSASLAISGLRSEDEADYYCGAWDDSLSGYVFGGGTKLTVLG", "attribute-measured": "EC50 (read off the curve)", "assay-value": "~30 pM"}
{"binder": "O32 (antibody, V domains shown) VH: EVQLLESGGGLVQPGGSLRLSCAASGFTFSSYSMSWVRQAPGKGLEWVSVISSGGGSTYYADSVKGRFTISRDNSKNTLYLQMNSLRAEDTAVYYCARHWRYFDYWGQGTLVTVSS VL: QSVLTQPPSASGTPGQRVTISCSGSSSNIGNNYVSWYQQLPGTAPKLLIYADSKRPSGVPDRFSGSKSGTSASLAISGLRSEDEADYYCGAWDSSLSGYVFGGGTKLTVLG", "attribute-measured": "EC50 (read off the curve)", "assay-value": "~1 pM"}
{"binder": "O15 (antibody, V domains shown) VH: EVQLLESGGGLVQPGGSLRLSCAASGFTFSSYSMSWVRQAPGKGLEWVSMISSGGGSTYYADSVKGRFTISRDNSKNTLYLQMNSLRAEDTAVYYCARHWRYFDYWGQGTLVTVSS VL: QSVLTQPPSASGTPGQRVTISCSGSSSNIGNNYVSWYQQLPGTAPKLLIYADSKRPSGVPDRFSGSKSGTSASLAISGLRSEDEADYYCGAWDSSLSGYVFGGGTKLTVLG", "attribute-measured": "EC50 (read off the curve)", "assay-value": "~200 pM"}
{"binder": "O34 (antibody, V domains shown) VH: EVQLLESGGGLVQPGGSLRLSCAASGFTFSDYYMSWVRQAPGKGLEWVSGISSSGGNKYYADSVKGRFTISRDNSKNTLYLQMNSLRAEDTAVYYCARHWKRFDYWGQGTLVTVSS VL: QSVLTQPPSASGTPGQRVTISCTGPSSNIGNNDVSWYQQLPGTAPKLLIYANSNRPSGVSDRFSGSKSGTSASLAISGLRSEDEADYYCGTWDYSLSGYVLGGGTKLTVLG", "attribute-measured": "EC50 (read off the curve)", "assay-value": "~5 pM"}
